Sourced from the supplement of paper PMC11208160

- test: recombinant UMI read abundance after kanamycin selection (control-corrected) (log10(CPM+1)); higher = more efficient recombination; extreme values may be limits of the assay; sequences stand for … in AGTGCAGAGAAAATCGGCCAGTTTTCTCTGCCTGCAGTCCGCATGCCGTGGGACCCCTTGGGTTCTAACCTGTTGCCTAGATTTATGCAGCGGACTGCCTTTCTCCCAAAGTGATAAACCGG…AGGTTGGTTTCACT; site = the 11-nt donor;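 further: IS621 bridge recombinase in Escherichia coli cells against a fixed T5 target plasmid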
measureName: recombinant UMI read abundance (log10)
# output: bare number, no unit

{"seq": "CCCAGGACATGGACCGGTTTTCCCGGTAATCCGTATTTGCG (site CCCAGGACTCG)", "recombinant UMI read abundance (log10)": 0.893}
{"seq": "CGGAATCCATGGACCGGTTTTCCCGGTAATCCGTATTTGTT (site CTCAATCCTAA)", "recombinant UMI read abundance (log10)": 0}
{"seq": "GACAAGCCATGGACCGGTTTTCCCGGTAATCCGTATTTGGT (site GACAACCCTAC)", "recombinant UMI read abundance (log10)": 0.00727}
{"seq": "CTAAGCCCATGGACCGGTTTTCCCGGTAATCCGTATTTGAA (site CTAAGCCCTTT)", "recombinant UMI read abundance (log10)": 1.25}
{"seq": "CAAGGCCCATGGACCGGTTTTCCCGGTAATCCGTATTTGTT (site CAGGGCCCTAA)", "recombinant UMI read abundance (log10)": 0.0144}

Value of recombinant UMI read abundance (log10) reported for the sequence GCAATCGCATGGACCGGTTTTCCCGGTAATCCGTATTTGAG (site GCAATCGCTCT) is 2.29

###

- test: recombinant UMI read abundance after kanamycin selection (control-corrected) (log10(CPM+1)); higher = more efficient recombination; extreme values may be limits of the assay; sequences stand for … in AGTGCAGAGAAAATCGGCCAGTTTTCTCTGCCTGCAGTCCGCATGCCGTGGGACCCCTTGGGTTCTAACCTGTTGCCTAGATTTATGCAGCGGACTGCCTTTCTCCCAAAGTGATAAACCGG…AGGTTGGTTTCACT; site = the 11-nt donor
Label Satisfied when recombinant UMI read abundance (log10) is at or above 0.004; otherwise label Not satisfied.

Solved cases below.
{"seq": "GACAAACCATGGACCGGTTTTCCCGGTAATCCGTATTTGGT (site GCCAAACCTAC)", "assignedCategory": "Not satisfied"}
{"seq": "CCAGTCACATGGACCGGTTTTCCCGGTAATCCGTATTTGGG (site CGAGTCACTCC)", "assignedCategory": "Satisfied"}
{"seq": "TAGAGCCCATGGACCGGTTTTCCCGGTAATCCGTATTTGCG (site TAGAGCCCTCG)", "assignedCategory": "Satisfied"}
{"seq": "CATTGAACATGGACCGGTTTTCCCGGTAATCCGTATTTGCC (site CATTGAACTGG)", "assignedCategory": "Not satisfied"}
{"seq": "TAATGCTCATGGACCGGTTTTCCCGGTAATCCGTATTTGAA (site TAATGCTCTTT)", "assignedCategory": "Satisfied"}

Request: Determine whether this sequence has recombinant UMI read abundance (log10) no lower than 0.004: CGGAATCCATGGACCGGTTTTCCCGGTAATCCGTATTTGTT (site CTGAATCCTAC)
Result: Not satisfied

Request: Determine whether this sequence has recombinant UMI read abundance (log10) no lower than 0.004: CGCCCTACATGGACCGGTTTTCCCGGTAATCCGTATTTGAG (site CACCCTACTCT)
Result: Satisfied

Request: Determine whether this sequence has recombinant UMI read abundance (log10) no lower than 0.004: CGATAATCATGGACCGGTTTTCCCGGTAATCCGTATTTGCG (site CGATAATCTCG)
Result: Satisfied
